Measured Inhibition ratio of Y5 agonist-induced food intake accompanies every entry in the list below.
# assayed-system: NPY Y5 receptor (Mus musculus)
# Construct: from tissue; host or cells: brain of living male C57BL/6J mice
# Sequence (O70342 whole entry): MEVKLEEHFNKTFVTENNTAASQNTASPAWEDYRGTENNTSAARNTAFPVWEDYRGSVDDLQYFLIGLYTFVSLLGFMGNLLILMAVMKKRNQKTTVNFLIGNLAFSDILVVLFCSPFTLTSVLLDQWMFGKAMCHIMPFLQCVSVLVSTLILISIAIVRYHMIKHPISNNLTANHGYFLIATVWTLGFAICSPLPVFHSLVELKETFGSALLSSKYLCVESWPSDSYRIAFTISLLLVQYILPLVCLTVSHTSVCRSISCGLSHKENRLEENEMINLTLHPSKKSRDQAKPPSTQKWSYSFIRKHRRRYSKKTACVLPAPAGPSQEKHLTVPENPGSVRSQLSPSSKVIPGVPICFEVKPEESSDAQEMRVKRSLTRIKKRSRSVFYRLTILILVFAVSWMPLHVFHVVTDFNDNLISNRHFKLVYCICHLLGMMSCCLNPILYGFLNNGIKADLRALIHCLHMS
# assay-procedure: Inhibition of Y5 agonist-induced food intake in mice
# Assay type: in vivo, C57BL/6J mice
# experimental-conditions: 4 hours after dosing; *Dose: 1.5 mg/kg
Quick reminder: number only, in %*, skip the unit.

For orientation, consider the following solved cases.
[[record]]
compound = "CCC(C)S(=O)(=O)NC[C@H]1CC[C@H](Nc2nc3ccc(F)cc3o2)CC1 (some centres unmarked) [Ij-161]"
recorded_number = 15.8

[[record]]
compound = "CC(C)S(=O)(=O)NC[C@H]1CC[C@H](Nc2nc3cc(F)ccc3s2)CC1 [Ij-151]"
recorded_number = 78.4

[[record]]
compound = "CC(C)S(=O)(=O)NC[C@H]1CC[C@H](Nc2nc3ccc(F)cc3s2)CC1 [Ij-152]"
recorded_number = 62.6


Summary for this compound, CCC(C)S(=O)(=O)NC[C@H]1CC[C@H](Nc2nc3cc(F)ccc3o2)CC1 (some centres unmarked) [Ij-160] : Inhibition ratio of Y5 agonist-induced food intake is 36.6

Summary for this compound, CC(C)S(=O)(=O)NC[C@H]1CC[C@H](Nc2nc3cc(F)ccc3o2)CC1 [Ij-155] : Inhibition ratio of Y5 agonist-induced food intake is 56.1
